meta.source: patent US20260167656A1

# Tested on: non-small cell lung cancer cell line H460
# protocolSummary: In vitro human cancer cell line cytotoxicity (proliferation) assay in H460, CellTiter-Glo, 72 hours
# Format: cell-based
# condition: Homo sapiens, NCI-H460, 72 h, H460 cells, DMSO condition (no AKR1C3 inhibitor), read-out: CTG H460: Avg IC50 (nM) [Assay Condition: DMSO]
Consider the following compounds; for each one, report its IC50.

For the compound CC(OP(=O)(N1CC1)N1CC1)c1ccc([N+](=O)[O-])c(COc2ccncc2)c1 (stereo not shown) [Example 5] , give its reported IC50.
≥ 100 nM

For the compound Cn1c(=O)oc2cc(Oc3cc4c(cc3[N+](=O)[O-])CCC4OP(=O)(N3CC3)N3CC3)ccc21 (stereo not shown) [Example 174] , give its reported IC50.
< 10 nM

For the compound CC(OP(=O)(N1C[C@@H]1C)N1C[C@@H]1C)c1ccc([N+](=O)[O-])c(Oc2cccc(C(=O)N(C)C)c2)c1 (stereo partly shown) [Example 211] , give its reported IC50.
< 10 nM

For the compound CC(OP(=O)(N1CC1)N1CC1)c1ccc([N+](=O)[O-])c(COc2ccc(C(=O)N(C)C)cn2)c1 (stereo not shown) [Example 7] , give its reported IC50.
10 to 50 nM

For the compound O=[N+]([O-])c1ccc2c(c1Oc1ccc(F)c(S(=O)(=O)C3CC3)c1)CC[C@@H]2OP(=O)(N1CC1)N1CC1 [Example 513] , give its reported IC50.
< 10 nM

For the compound Cn1cc(-c2ccc(Oc3cc4c(cc3[N+](=O)[O-])CCC4OP(=O)(N3CC3)N3CC3)cc2)ccc1=O (stereo not shown) [Example 178] , give its reported IC50.
≥ 100 nM

For the compound CN1Cc2ccc(Oc3cc4c(cc3[N+](=O)[O-])OCCC4OP(=O)(N3CC3)N3CC3)cc2C1=O (stereo not shown) [Example 199] , give its reported IC50.
< 10 nM
